biological target: undecaprenyl pyrophosphate synthase (UppS) (Escherichia coli, UniProt P60472); construct: gene ispU; N-terminal His6-tagged UppSEc; experiment: biochemical; design: radiolabeled [14C]-IPP UppS assay, TLC quantification of [14C]-UPP; residual activity or IC50; conditions: read-out: % of control remaining
ASSAY READOUT: remaining activity at 100 µM (%)
One number for each entry, in %.

Use the examples below as a reference point.
* O=C(CN1CCCC1C(=O)O)NCc1ccc(COc2ccccc2)cc1 (stereo not drawn) | 124
* O=C(O)c1ccccc1C(=O)Nc1ccc(C(=O)N(c2ccccc2)c2ccc3ccccc3c2)cc1 | 58
* Cc1ccc(Nc2nccc(Nc3ccc(O)c(C(=O)O)c3)n2)c(C)c1 | 72
* O=C(Cc1ccccc1C(=O)O)Nc1ccn(Cc2ccccc2Cl)n1 | 115
* CCOc1ccc(N(CC(=O)Nc2ccccc2C(=O)O)S(=O)(=O)c2ccc(Cl)cc2)cc1 | 102

The record that follows has no remaining activity at 100 µM shown yet.
Exercise: Find the measured remaining activity at 100 µM: item O=C(O)C1CCCCC1C(=O)Nc1ccc(N2CCN(Cc3ccccc3)CC2)cc1 (stereo not drawn) , target or system undecaprenyl pyrophosphate synthase (UppS) (Escherichia coli, UniProt P60472).
Solution: 53

---

Biological target: undecaprenyl pyrophosphate synthase (UppS) (Escherichia coli)
Construct: gene ispU; N-terminal His6-tagged UppSEc
Sequence (P60472 1-253): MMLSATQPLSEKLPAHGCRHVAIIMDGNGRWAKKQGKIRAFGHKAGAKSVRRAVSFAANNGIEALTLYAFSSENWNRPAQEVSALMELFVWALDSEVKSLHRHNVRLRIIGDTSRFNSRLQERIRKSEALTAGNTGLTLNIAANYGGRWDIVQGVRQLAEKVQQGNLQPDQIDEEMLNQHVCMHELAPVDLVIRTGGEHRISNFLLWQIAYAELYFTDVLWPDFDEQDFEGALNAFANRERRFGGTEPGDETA
Test: biochemical
Design: radiolabeled [14C]-IPP UppS assay, TLC quantification of [14C]-UPP; residual activity or IC50
Details: read-out: % of control remaining
Give remaining activity at 100 µM for every item shown.
Answers are plain numbers, in %.

- Cc1ccc(N2CCN(C(=O)c3ccccc3NC(=O)C3CC=CCC3C(=O)O)CC2)cc1 (stereo not shown): 104

For each of the compounds below, note its remaining activity at 100 µM.
1. O=C(O)c1ccccc1C(=O)Nc1ccc(C(=O)N(c2ccccc2)c2cccc3ccccc23)cc1
2. O=C(O)c1ccccc1C(=O)NCCC(c1ccc(F)cc1)c1ccco1 (stereo not shown)
3. O=C(COc1ccccc1)Nc1ccc(N2CCN(c3ccc(Cl)cc3)CC2)cc1C(=O)O
4. O=C(Nc1ccccc1C(=O)O)c1cccc(NC(=O)C(c2ccccc2)c2ccccc2)c1
5. Cc1cccc(C(=O)O)c1NC(=O)COc1ccc(Cl)cc1

Solution:
1: 60; 2: 99; 3: 121; 4: 101; 5: 122

For each of the compounds below, note its remaining activity at 100 µM.
1. Cc1ccc(OCCNC(=O)C2CC=CCC2C(=O)O)cc1 (stereo not shown)
2. CCCCCCCCCCCCN(CP(=O)(O)O)CP(=O)(O)O
3. O=C(NCCc1ccccc1)c1ccc(NC(=O)c2nccnc2C(=O)O)cc1
4. O=C(Cn1cc(-c2ccc(Cl)cc2)ncc1=O)NC(C(=O)O)c1ccccc1 (stereo not shown)

Solution:
117
147
122
96

---

Give remaining activity at 100 µM for every item shown.
Target: undecaprenyl pyrophosphate synthase (UppS) (Escherichia coli, UniProt P60472)
Construct: gene ispU; N-terminal His6-tagged UppSEc
Sequence (P60472 1-253): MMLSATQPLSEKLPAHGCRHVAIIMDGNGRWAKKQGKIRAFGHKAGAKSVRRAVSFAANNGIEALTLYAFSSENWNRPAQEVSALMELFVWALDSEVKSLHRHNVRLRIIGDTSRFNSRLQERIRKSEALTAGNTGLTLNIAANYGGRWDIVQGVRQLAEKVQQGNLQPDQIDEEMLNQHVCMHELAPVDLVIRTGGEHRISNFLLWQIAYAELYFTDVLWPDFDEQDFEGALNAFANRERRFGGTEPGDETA
Assay: biochemical
Set-up: radiolabeled [14C]-IPP UppS assay, TLC quantification of [14C]-UPP; residual activity or IC50
Conditions: read-out: % of control remaining
Numbers only, in %.

Use the examples below as a reference point.
* O=C(O)C1CCCCC1C(=O)Nc1ccc(N2CCN(c3cccc(Cl)c3Cl)CC2)cc1 (stereo not drawn) | 96
* Cc1ccc(-n2c(SCC(=O)Nc3ccccc3C(=O)O)nnc2-c2cc3ccccc3o2)cc1 | 122

The record that follows has no remaining activity at 100 µM shown yet.
Exercise: Find the measured remaining activity at 100 µM: item COC(=O)C(NC(=O)c1ccccc1C(=O)O)c1ccc(OCc2ccccc2)c(OC)c1 (stereo not drawn) , target or system undecaprenyl pyrophosphate synthase (UppS) (Escherichia coli, UniProt P60472).
Solution: 65
